// provenance: PubChem BioAssay (NCI)

- Test system: OVCAR-8 ovarian
- procedure.text: NCI tumour cell line growth inhibition, 48 h

{"compound": "COc1ccc(NC(C)=O)cc1N1C(=O)/C(=C\\c2cccc(Oc3ccccc3)c2)SC1c1ccccc1 (stereo unspecified)", "TGI": "64.8 µM"}
{"compound": "O=C(O)CCCN=C(C(=NCCCC(=O)O)c1ccccc1)c1ccccc1", "TGI": "> 100 µM"}
{"compound": "CC1CC2(C)CC(=O)C1C1C(=O)N(CCN3CCOCC3)C(=O)C12 (stereo unspecified)", "TGI": "> 100 µM"}
{"compound": "N#Cc1c(Nc2ccccc2)[n+]([O-])c2ccc(Cl)cc2[n+]1[O-]", "TGI": "10.7 µM"}
{"compound": "Nc1ncnc2c1ncn2COC/C=C/I", "TGI": "> 100 µM"}
{"compound": "COc1ccccc1NC1=NCC(C)S1 (stereo unspecified)", "TGI": "> 100 µM"}
